tgt: Sodium-dependent noradrenaline transporter (Homo sapiens) (UniProt P23975)
Sequence (P23975 whole entry, looked up): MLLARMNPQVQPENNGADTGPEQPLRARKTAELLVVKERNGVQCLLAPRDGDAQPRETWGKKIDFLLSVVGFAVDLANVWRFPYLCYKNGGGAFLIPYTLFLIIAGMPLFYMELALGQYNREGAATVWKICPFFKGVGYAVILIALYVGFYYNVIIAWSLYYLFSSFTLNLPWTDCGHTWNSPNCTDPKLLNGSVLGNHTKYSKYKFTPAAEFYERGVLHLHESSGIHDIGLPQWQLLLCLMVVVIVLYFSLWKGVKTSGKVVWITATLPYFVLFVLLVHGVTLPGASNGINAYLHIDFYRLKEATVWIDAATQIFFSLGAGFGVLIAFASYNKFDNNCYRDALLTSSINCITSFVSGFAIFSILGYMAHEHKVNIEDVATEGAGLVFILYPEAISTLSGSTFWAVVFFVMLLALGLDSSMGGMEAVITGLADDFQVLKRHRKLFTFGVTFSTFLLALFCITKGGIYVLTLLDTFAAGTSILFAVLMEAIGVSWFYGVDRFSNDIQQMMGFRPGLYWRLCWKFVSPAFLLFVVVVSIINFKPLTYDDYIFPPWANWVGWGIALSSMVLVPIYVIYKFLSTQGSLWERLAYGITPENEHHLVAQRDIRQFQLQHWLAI
valueKind: IC50

Record CNC[C@H](O)c1ccc(O)c(O)c1 / Sodium-dependent noradrenaline transporter (Homo sapiens) (UniProt P23975), IC50 recorded as 4 µM
